From: patent US11572341B2

- System: HCT116 cells
- Test method notes: Inhibitory effect against cancer cell proliferation (MTT)
- Type: cell-based, human
- Condition label: HCT116, MTT, 48 hours; read-out: IC50 (uM) @ HCT116
Reported metric: IC50

| Compound | IC50 |
| --- | --- |
| Cl.N=C(NC(N)=NCCc1cccs1)N1CCCCC1 [Example 99, Hydrochloride] | > 100 µM |

Request: Can you look up the measured IC50 of Cl.N=C(NC(=N)N1CCCC1)Nc1ccccc1C(F)(F)F [Example 75, Hydrochloride] for me?
Response: > 100 µM
